- System: Target C mRNA
- TEST_SUMMARY: Splicing RT-qPCR gene panel, Target C canonical junction (CJ) mRNA
- Type: cell-based, human
- CONDITION_SUMMARY: Homo sapiens, Tables 4A/4B, read-out: Target C (IC50, decrease in CJ mRNA, gene panel)
pIC50: −log10 of the molar value.
// pIC50 lookup, one value per entry

Worked cases, answers included:
- MOLECULE: "CCn1cc2c(N3CCC(NC)C3)ncc(C(=O)Nc3cc(F)c4nc(C)cn4c3)c2n1 (stereo not shown)"
  pIC50: "5.00 to 6.00"
- MOLECULE: "Cc1cn2cc(-c3ccc(C(=O)NC4CCNCC4)c4nn(C)cc34)cc(F)c2n1"
  pIC50: "< 5.00"
- MOLECULE: "Cc1cn2cc(NC(=O)c3ccc(N4CCNCC4)c4c3nnn4C)cc(F)c2n1"
  pIC50: "< 5.00"
- MOLECULE: "CCn1cc2c(N3CCC(N(C)C)C3)ccc(C(=O)Nc3cc(F)c4nc(C)cn4c3)c2n1 (stereo not shown)"
  pIC50: "6.00 to 7.00"
- MOLECULE: "Cc1cn2cc(NC(=O)c3ccc(N4CCC(N5CCCC5)C4)c4cn(C)nc34)cc(F)c2n1 (stereo not shown)"
  pIC50: "6.00 to 7.00"

Dear colleague, I am looking for the recorded pIC50 of the following molecule: `Cc1nc2c(F)cc(NC(=O)c3ccc(N4CCNCC4)c4cn(C)nc34)cn2c1C`
< 5.00

Dear colleague, I am looking for the recorded pIC50 of the following molecule: `COCCCn1cc2c(N3CCNCC3)ccc(C(=O)Nc3cc(F)c4nc(C)cn4c3)c2n1`
< 5.00

Dear colleague, I am looking for the recorded pIC50 of the following molecule: Cc1cn2cc(NC(=O)c3ccc(N4CCC(NC5(CF)CC5)C4)c4cn(C)nc34)cc(F)c2n1 (stereo not shown)
< 5.00

Dear colleague, I am looking for the recorded pIC50 of the following molecule: CCNC1CCN(c2ccc(C(=O)Nc3cc(F)c4nc(C)cn4c3)n3nc(C(C)O)cc23)C1 (stereo not shown)
6.00 to 7.00

Dear colleague, I am looking for the recorded pIC50 of the following molecule: `Cc1cn2cc(NC(=O)c3cc(C)c(N4CCNCC4)c4cn(C)nc34)cc(F)c2n1`
< 5.00

Dear colleague, I am looking for the recorded pIC50 of the following molecule: `Cc1cn2cc(NC(=O)c3ccc(N4CC5(CN(C)C5)C4)c4cc(C)oc34)cc(F)c2n1`
< 5.00

Dear colleague, I am looking for the recorded pIC50 of the following molecule: `Cc1cn2cc(NC(=O)c3ccc(N4CCNC5(CC5)C4)c4cn(C)nc34)cc(F)c2n1`
5.00 to 6.00

Dear colleague, I am looking for the recorded pIC50 of the following molecule: `CCn1cc2c(N3C[C@H]4CC[C@@H](C3)N4)ccc(C(=O)Nc3cc(F)c4nc(C)cn4c3)c2n1`
< 5.00

Dear colleague, I am looking for the recorded pIC50 of the following molecule: `CCn1cc2c(N3C[C@@H](C)N[C@@H](C)C3)ccc(C(=O)Nc3cc(F)c4nc(C)cn4c3)c2n1`
5.00 to 6.00

Dear colleague, I am looking for the recorded pIC50 of the following molecule: `CNc1cc(N2CCNCC2)c2cn(C)nc2c1C(=O)Nc1cc(F)c2nc(C)cn2c1`
< 5.00

Dear colleague, I am looking for the recorded pIC50 of the following molecule: `Cc1cn2cc(NC(=O)c3ccc(N4CCNCC4)n4cc(C)nc34)cc(F)c2n1`
5.00 to 6.00

----------
- System: HTT mRNA
- TEST_SUMMARY: Splicing RT-qPCR assay, HTT canonical (CJ) and alternative (AJ) junction mRNA
- Format: cell-based, human
- CONDITION_SUMMARY: Homo sapiens, A673 or K562 cells, 24 hours compound treatment, read-out: HTT AJ (AC50, increase in alternative junction mRNA)
READOUT: AC50

Worked cases, answers included:
- MOLECULE: "Cn1cc2c(N3CCNCC3)ccc(C(=O)Nc3cc(F)c4nc(CO)cn4c3)c2n1"
  AC50: "> 10 µM"
- MOLECULE: "Cc1cn2cc(NC(=O)c3ccc(N4CCNCC4)c4cn(C5CCOC5)nc34)cc(F)c2n1 (stereo not drawn)"
  AC50: "> 10 µM"

Moving on to the next molecule.
Dear colleague, I am looking for the recorded AC50 of the following molecule: `Cc1cn2cc(NC(=O)c3ccc(N4CCC5(CC4)CNC5)c4cn(C)nc34)cc(F)c2n1`
1 to 10 µM

----------
- Test system: HTT
- TEST_SUMMARY: Protein abundance, HiBit-assay system (Promega), HTT
- Assay type: cell-based
- CONDITION_SUMMARY: Table 6; HiBiT-modified K562 cells, 24 hours
READOUT: IC50

Worked cases, answers included:
- COMPOUND: "Cc1cn2cc(NC(=O)c3ccc(N4CC5NC5C4)c4cn(C)nc34)cc(F)c2n1 (stereo not shown)"
  IC50: "100 to 1000 nM"
- COMPOUND: "CCn1cc2c(N3CC[C@@H](NC)C3)ccc(C(=O)Nc3cc(Cl)c4nc(C)cn4c3)c2n1"
  IC50: "1000 to 10000 nM"
- COMPOUND: "Cc1cn2cc(NC(=O)c3ccc(N4CC[C@@H](NCc5cnc(Cl)nc5)C4)c4cn(C)nc34)cc(F)c2n1"
  IC50: "> 10000 nM"
- COMPOUND: "Cc1cn2cc(NC(=O)c3ccc(N4CC[C@@H](NC56CC(C5)C6)C4)c4cn(C)nc34)cc(F)c2n1"
  IC50: "1000 to 10000 nM"
- COMPOUND: "CCn1cc2c(N3CCC(N[C@H]4C[C@H](O)C4)CC3)ccc(C(=O)Nc3cc(F)c4nc(C)cn4c3)c2n1"
  IC50: "1000 to 10000 nM"
- COMPOUND: "Cc1cn2cc(NC(=O)c3ccc(N4CCNC(C)C4)c4cc(C)oc34)cc(F)c2n1 (stereo not shown)"
  IC50: "100 to 1000 nM"

Moving on to the next compound.
API: value(readout= IC50, system= HTT, query= `Cc1cn2cc(NC(=O)c3ccc(N4CCNC(C)(C)C4)c4cc(C)oc34)cc(F)c2n1` )
1000 to 10000 nM

----------
- Test system: MYB mRNA
- TEST_SUMMARY: Splicing RT-qPCR assay, MYB canonical (CJ) and alternative (AJ) junction mRNA
- Type: cell-based, human
- CONDITION_SUMMARY: Homo sapiens, 24 h, A673 or K562 cells, 24 hours compound treatment, RT-qPCR; read-out: MYB AJ (AC50, increase in alternative junction mRNA)
Counter-ions that a name gives are not always drawn.
// AC50 lookup, one value per entry

- COMPOUND: "Cn1cc2cc(NC(=O)c3ccc(N4CCNCC4)c4cn(C)nc34)ccc2n1 [Compound 324, hydrochloride]"
  MEASURED: "100 to 1000 nM"
- COMPOUND: "Cc1cn2cc(NC(=O)c3ccc(N4CCNCC4)c4cn(Cc5ccncc5)nc34)cc(F)c2n1 [Compound 313]"
  MEASURED: "1000 to 10000 nM"
- COMPOUND: "Cc1cn2cc(NC(=O)c3ccc(N(C)C4CCN(C)CC4)c4cc(C)oc34)cc(F)c2n1 [Compound 200]"
  MEASURED: "1000 to 10000 nM"
- COMPOUND: "Cc1cn2cc(NC(=O)c3ccc(N4CCNCC4)c4cn(CC(=O)N(C)C)nc34)cc(F)c2n1 [Compound 309]"
  MEASURED: "> 10000 nM"
- COMPOUND: "CCNC1CCN(c2ccc(C(=O)Nc3cc(F)c4nc(C)cn4c3)c3nn(CC)cc23)CC1 [Compound 380]"
  MEASURED: "< 100 nM"
- COMPOUND: "Cc1cn2nc(-c3ccc(C(=O)NC4CCNCC4)c4oc(C)cc34)cc(F)c2n1 [Compound 283]"
  MEASURED: "> 10000 nM"

API: value(readout= AC50, system= MYB mRNA, query= CCn1cc2c(N3CCC(NC4C5COCC54)CC3)ccc(C(=O)Nc3cc(F)c4nc(C)cn4c3)c2n1 (centres unmarked) [Compound 581] )
100 to 1000 nM

API: value(readout= AC50, system= MYB mRNA, query= C=Cn1cc2c(N3CCC(NC)CC3)ccc(C(=O)Nc3cc(F)c4nc(C)cn4c3)c2n1 [Compound 502] )
< 100 nM

----------
// pIC50 lookup, one value per entry
- Tested on: Target C mRNA
- TEST_SUMMARY: Splicing RT-qPCR gene panel, Target C canonical junction (CJ) mRNA
- Format: cell-based, human
- CONDITION_SUMMARY: Homo sapiens, Tables 4A/4B, read-out: Target C (IC50, decrease in CJ mRNA, gene panel)
pIC50: −log10 of the molar value. Structures can show the parent of a compound that is named as a salt.

- COMPOUND: "Cc1cn2cc(NC(=O)c3c(F)cc(N4CCC(N(C)C)C4)c4cn(C)nc34)cc(F)c2n1 (stereo in doubt) [Compound 463]"
  pIC50: "< 5.00"

Dear colleague, I am looking for the recorded pIC50 of the following compound: Cc1cn2cc(NC(=O)c3ccc(N4CC[C@H](N)C4)c4cn(C)nc34)cc(F)c2n1 [Compound 382]
< 5.00

Dear colleague, I am looking for the recorded pIC50 of the following compound: Cc1cn2cc(NC(=O)c3ccc(N4CCNCC4)c4nc(C)nn34)cc(F)c2n1 [Compound 946]
6.00 to 7.00

Dear colleague, I am looking for the recorded pIC50 of the following compound: CCn1cc2c(N3CC[C@H](N(C)C)C3)ccc(C(=O)Nc3cc(F)c4nc(C)cn4c3)c2n1 [Compound 408]
< 5.00

Dear colleague, I am looking for the recorded pIC50 of the following compound: Cc1cn2cc(NC(=O)c3ccc(N4CCN[C@@H](C)C4)c4cn(C)nc34)cc(F)c2n1 (single isomer, unassigned) [Compound 352]
5.00 to 6.00

Dear colleague, I am looking for the recorded pIC50 of the following compound: COc1c(NC(=O)c2ccc(N3CCNCC3)c3cn(C)nc23)cc2cn(C)nc2c1F [Compound 315, hydrochloride]
6.00 to 7.00

Dear colleague, I am looking for the recorded pIC50 of the following compound: Cc1cn2cc(NC(=O)c3ccc(N4CCNCC4)c4cn(C)nc34)cc(C)c2n1 [Compound 238]
< 5.00

Dear colleague, I am looking for the recorded pIC50 of the following compound: CCOc1nc(NC(=O)c2ccc(N3CC[C@H](NC)C3)c3cn(C)nc23)cn2cc(C)nc12 [Compound 434]
< 5.00
